Tested on: SaR4: Meticillin-Resistant Staphylococcus aureus
Assay: Antibiogram, MIC by the VITEK 2 system
Assay type: cell-based
Settings: SaR4; Table F1; MIC
Procedure: The bacterial and antibiogramidentification is carried out by the VITEK 2 system (bioMérieux) and by the disk diffusion technique
MEASURED_ATTRIBUTE: Results

SMI	RESULT
CC[C@H]1OC(=O)[C@H](C)[C@@H](O[C@H]2C[C@@](C)(OC)[C@@H](O)[C@H](C)O2)[C@H](C)[C@@H](O[C@@H]2O[C@H](C)C[C@H](N(C)C)[C@H]2O)[C@](C)(O)C[C@@H](C)C(=O)[C@H](C)[C@@H](O)[C@]1(C)O	Resistant
CC1(C)S[C@@H]2[C@H](NC(=O)Cc3ccccc3)C(=O)N2[C@H]1C(=O)O	Resistant
CC(=O)O[C@H]1C[C@@]2(C)[C@@H](C[C@@H](O)[C@H]3[C@@]4(C)CC[C@@H](O)[C@@H](C)[C@@H]4CC[C@@]32C)/C1=C(\CCC=C(C)C)C(=O)O	Susceptible
O=C(N[C@H](CO)[C@H](O)c1ccc([N+](=O)[O-])cc1)C(Cl)Cl	Susceptible
Cc1onc(-c2ccccc2)c1C(=O)N[C@@H]1C(=O)N2[C@@H]1SC(C)(C)[C@@H]2C(=O)O	Resistant
CN[C@H](CC(C)C)C(=O)N[C@H]1C(=O)N[C@@H](CC(N)=O)C(=O)N[C@H]2C(=O)N[C@H]3C(=O)N[C@H](C(=O)N[C@H](C(=O)O)c4cc(O)cc(O)c4-c4cc3ccc4O)[C@H](O)c3ccc(c(Cl)c3)Oc3cc2cc(c3O[C@@H]2O[C@H](CO)[C@@H](O)[C@H](O)[C@H]2O[C@H]2C[C@](C)(N)[C@H](O)[C@H](C)O2)Oc2ccc(cc2Cl)[C@H]1O	Susceptible
CCC[C@@H]1C[C@@H](C(=O)N[C@@H]([C@H]2O[C@H](SC)[C@H](O)[C@@H](O)[C@H]2O)[C@@H](C)O)N(C)C1	Resistant
C[C@@H]1O[C@@H]1P(=O)(O)O	Resistant

###

system: EcR2: Cephalosporinase-Hyperproducing Strain of Escherichia coli; experiment: Antibiogram by the disk diffusion technique; format: cell-based; conditions: EcR2; Table B2; diameters
MEASURED_ATTRIBUTE: Diameter (mm)

COMPOUND	MEASURED_ATTRIBUTE	U	RESULT_NUMBER
CO[C@@]1(NC(=O)Cc2cccs2)C(=O)N2C(C(=O)O)=C(COC(N)=O)CS[C@@H]21 [Cefoxitin]	Diameter	mm	11
NC[C@H]1O[C@H](O[C@H]2[C@H](O)[C@@H](O[C@H]3O[C@H](CO)[C@@H](O)[C@H](N)[C@H]3O)[C@H](N)C[C@@H]2N)[C@H](N)C[C@@H]1O [Tobramycin]	Diameter	mm	10
CO/N=C(\C(=O)N[C@@H]1C(=O)N2C(C(=O)O)=C(COC(C)=O)CS[C@H]12)c1csc(N)n1 [Cefotaxime]	Diameter	mm	24
CC(C)(O/N=C(\C(=O)N[C@@H]1C(=O)N2C(C(=O)[O-])=C(C[n+]3ccccc3)CS[C@H]12)c1csc(N)n1)C(=O)O [Ceftazidime]	Diameter	mm	20

###

test system: SaR3: Meticillin-Resistant Staphylococcus aureus; experiment: Antibiogram by the disk diffusion technique; format: cell-based; details: Cd CA-SFM 2011
MEASURED_ATTRIBUTE: CA-SFM Interpretation

SMI	ASSAYED_TARGET	RESULT
CC[C@H]1OC(=O)[C@H](C)[C@@H](O[C@H]2C[C@@](C)(OC)[C@@H](O)[C@H](C)O2)[C@H](C)[C@@H](O[C@@H]2O[C@H](C)C[C@H](N(C)C)[C@H]2O)[C@](C)(O)C[C@@H](C)C(=O)[C@H](C)[C@@H](O)[C@]1(C)O	SaR3: Meticillin-Resistant Staphylococcus aureus	Susceptible
CN[C@H](CC(C)C)C(=O)N[C@H]1C(=O)N[C@@H](CC(N)=O)C(=O)N[C@H]2C(=O)N[C@H]3C(=O)N[C@H](C(=O)N[C@H](C(=O)O)c4cc(O)cc(O)c4-c4cc3ccc4O)[C@H](O)c3ccc(c(Cl)c3)Oc3cc2cc(c3O[C@@H]2O[C@H](CO)[C@@H](O)[C@H](O)[C@H]2O[C@H]2C[C@](C)(N)[C@H](O)[C@H](C)O2)Oc2ccc(cc2Cl)[C@H]1O	SaR3: Meticillin-Resistant Staphylococcus aureus	Susceptible
CCC[C@@H]1C[C@@H](C(=O)N[C@@H]([C@H]2O[C@H](SC)[C@H](O)[C@@H](O)[C@H]2O)[C@@H](C)O)N(C)C1	SaR3: Meticillin-Resistant Staphylococcus aureus	Susceptible

###

test system: SaR3: Meticillin-Resistant Staphylococcus aureus; test: Antibiogram by the disk diffusion technique; assay type: cell-based; details: Table E2
Entries and their diameter in mm

COMPOUND	diameter in mm, mm
C[C@@H]1O[C@@H]1P(=O)(O)O [Fosfomycin]	26
CO[C@H]1/C=C/O[C@@]2(C)Oc3c(C)c(O)c4c(O)c(c(/C=N/N5CCN(C)CC5)c(O)c4c3C2=O)NC(=O)/C(C)=C\C=C\[C@H](C)[C@H](O)[C@@H](C)[C@@H](O)[C@@H](C)[C@H](OC(C)=O)[C@@H]1C [Rifampicin]	31
NC[C@H]1O[C@H](O[C@H]2[C@H](O)[C@@H](O[C@H]3O[C@H](CO)[C@@H](O)[C@H](N)[C@H]3O)[C@H](N)C[C@@H]2N)[C@H](N)C[C@@H]1O [Tobramycin]	6

###

test system: SaR3: Meticillin-Resistant Staphylococcus aureus; test: Antibiogram by the disk diffusion technique; assay type: cell-based; conditions: Table E2
The compounds listed here are annotated with their diameter in mm.

SMI	ASSAYED_TARGET	diameter in mm
CN(C)c1ccc(O)c2c1C[C@H]1C[C@H]3[C@H](N(C)C)C(O)=C(C(N)=O)C(=O)[C@@]3(O)C(O)=C1C2=O	SaR3: Meticillin-Resistant Staphylococcus aureus	26 mm
CC[C@H]1OC(=O)[C@H](C)[C@@H](O[C@H]2C[C@@](C)(OC)[C@@H](O)[C@H](C)O2)[C@H](C)[C@@H](O[C@@H]2O[C@H](C)C[C@H](N(C)C)[C@H]2O)[C@](C)(O)C[C@@H](C)C(=O)[C@H](C)[C@@H](O)[C@]1(C)O	SaR3: Meticillin-Resistant Staphylococcus aureus	25 mm
NC[C@H]1O[C@H](O[C@H]2[C@H](O)[C@@H](O[C@H]3O[C@H](CO)[C@@H](O)[C@H](N)[C@H]3O)[C@H](N)C[C@@H]2N)[C@H](O)[C@@H](O)[C@@H]1O	SaR3: Meticillin-Resistant Staphylococcus aureus	6 mm
CO[C@@]1(NC(=O)Cc2cccs2)C(=O)N2C(C(=O)O)=C(COC(N)=O)CS[C@@H]21	SaR3: Meticillin-Resistant Staphylococcus aureus	17 mm
CCC[C@@H]1C[C@@H](C(=O)N[C@@H]([C@H]2O[C@H](SC)[C@H](O)[C@@H](O)[C@H]2O)[C@@H](C)O)N(C)C1	SaR3: Meticillin-Resistant Staphylococcus aureus	23 mm
CC1(C)S[C@@H]2[C@H](NC(=O)Cc3ccccc3)C(=O)N2[C@H]1C(=O)O	SaR3: Meticillin-Resistant Staphylococcus aureus	26 mm

###

test system: PaR2: Pseudomonas aeruginosa; assay type: cell-based; settings: Table G2
# diameter in mm annotations
MEASURED_ATTRIBUTE: diameter in mm

>>> print(df.to_string())
                                        smi  measured_attribute  result
0  C[C@@H](O)[C@H]1C(=O)N2C(C(=O)O)=C(SCCN=CN)C[C@H]12      diameter in mm   27 mm
1  CC(C)(O/N=C(\C(=O)N[C@@H]1C(=O)N2C(C(=O)[O-])=C(C[n+]3ccccc3)CS[C@H]12)c1csc(N)n1)C(=O)O      diameter in mm   23 mm
2  CN(C)c1ccc(O)c2c1C[C@H]1C[C@H]3[C@H](N(C)C)C(O)=C(C(N)=O)C(=O)[C@@]3(O)C(O)=C1C2=O      diameter in mm    6 mm
3  NC[C@H]1O[C@H](O[C@H]2[C@H](O)[C@@H](O[C@H]3O[C@H](CO)[C@@H](O)[C@H](N)[C@H]3O)[C@H](N)C[C@@H]2N)[C@H](N)C[C@@H]1O      diameter in mm   24 mm

###

test system: EcR2: Cephalosporinase-Hyperproducing Strain of Escherichia coli; assay: Antibiogram by the disk diffusion technique; format: cell-based; settings: EcR2, rows that print a diameter, Table B1
MEASURED_ATTRIBUTE: Results

>>> print(df.to_string())
                                        smi                            assayed_target        result
0  CO[C@@]1(NC(=O)Cc2cccs2)C(=O)N2C(C(=O)O)=C(COC(N)=O)CS[C@@H]21  EcR2: Cephalosporinase-Hyperproducing Strain of Escherichia coli     Resistant
1  CC(C)(O/N=C(\C(=O)N[C@@H]1C(=O)N2C(C(=O)[O-])=C(C[n+]3ccccc3)CS[C@H]12)c1csc(N)n1)C(=O)O  EcR2: Cephalosporinase-Hyperproducing Strain of Escherichia coli  Intermediate
2  NC[C@H]1O[C@H](O[C@H]2[C@H](O)[C@@H](O[C@H]3O[C@H](CO)[C@@H](O)[C@H](N)[C@H]3O)[C@H](N)C[C@@H]2N)[C@H](N)C[C@@H]1O  EcR2: Cephalosporinase-Hyperproducing Strain of Escherichia coli     Resistant
3  CO/N=C(\C(=O)N[C@@H]1C(=O)N2C(C(=O)O)=C(COC(C)=O)CS[C@H]12)c1csc(N)n1  EcR2: Cephalosporinase-Hyperproducing Strain of Escherichia coli  Intermediate

The values you see were collected from patent US20140066365A1.
